# ASSAY_PROCEDURE: yeast display, Sf9 membrane polyspecificity reagent, FACS + sequencing; frameworks hold sequencing errors

>  <QUERY_SEQUENCE>
QVQLVESGGGLVQAGGSLRLSCAASGIIFPFYAMGWYRQAPGKEREFVAAITSGDDTYYADSVKGRFTISRDNAKNTVYLQMNSLKPEDTAVYYCNKRLYIAGYWPQLYYIMDYWGQGTQVTVSS

>  <polyreactivity (PSR sort gate)>
low polyreactivity

$$$$
>  <QUERY_SEQUENCE>
QVQLVESGGGLVQAGGSLRLSCAASGLTFTYYAMGWYRQAPGKERELVAAISWSGGSTYYADSVKGRFTISRDKAKNTVYLQMNSLKPEDTAVYYCAAVDPFTPYDRTYTTDGRESDYWGQGTQVTVSS

>  <polyreactivity (PSR sort gate)>
low polyreactivity

$$$$
>  <QUERY_SEQUENCE>
QVQLVESGGGLVQAGGSLRLSCAASGYIFHLYAMGWYRQAPGKERELVAAISSGGRTYYADSVKGRFTISRDNAKNTVYLQMNSLKPEDTAVYYCAVRSYVNTAVGYYYWGQGTQVTVSS

>  <polyreactivity (PSR sort gate)>
high polyreactivity

$$$$
>  <QUERY_SEQUENCE>
QVQLVESGGGLVQAGGSLRLSCAASGITFAFYAMGWYRQAPGKERELVAAISWSGTRTYYADSVKGRFTISRDNAKNTVYLQMNSLKPEDSAVYYCAADYQAGDKLYDYWGQGTQVTVSS

>  <polyreactivity (PSR sort gate)>
low polyreactivity

$$$$
>  <QUERY_SEQUENCE>
QVQIVESGGGLVQAGGSLSLSCAASGRTFVLYVMGWYRQAPWKEREFVADINAGGGSTYYADSVKGRFTISRDNAKNTVYLQMNSLKPEDTAVYYCAATRDLGQLFRFGYWGQGTQVTVSS

>  <polyreactivity (PSR sort gate)>
low polyreactivity

$$$$
>  <QUERY_SEQUENCE>
QVQLVESGGGLVQAGGSHRLSCAASGSTFTWYPMGWYRQEPGKERELVADISYGGGSTYYADSVKGRFTISRDNAKNTVYLQMNSLKPEDTAVYYCAAESIPYYRYDYWGQGTQVTVSS

>  <polyreactivity (PSR sort gate)>
low polyreactivity

$$$$
>  <QUERY_SEQUENCE>
QVQLVESGGGLVQAGGSLRLSCAASGITFKRYAMGWYRQAPGKESELVATITWRDGSTYYADSVKGRFTISRDNAKNTVYLQMNSLKPEDTAVYYCAVAAYSRRSPYYHYNYWGQGTQVTVSS

>  <polyreactivity (PSR sort gate)>
high polyreactivity

$$$$
>  <QUERY_SEQUENCE>
QGQIVESGGGLGQAGGSLRLSCAASGSIFWANAMGWYSQSPWKERELVAAISSSGGRTYYADSVKGRFTISRDNAKNTVYLQMNSLKPEDTAVHYCNKLRLPYYEQGDYWGQGTQVTVSS

>  <polyreactivity (PSR sort gate)>
high polyreactivity

$$$$
>  <QUERY_SEQUENCE>
QVQLVESGGGLVQAGGSLRLSCAASGFTFKGNAMGWYRQAPGKERELVATITQSAGSTYYADSVKGRFTISRDNAKNTVYLQMNSLKPEDTAVYYCAAYLSETRPYLYDYWGQGTQVTVSS

>  <polyreactivity (PSR sort gate)>
low polyreactivity

$$$$
>  <QUERY_SEQUENCE>
QVQLVESVGGLVQAGGRLRLSCAASGSTFAFNAMGWSRQAPGKEREFVAVISYRTDNTYYADSVKGRFTISRDNAKNTVYLQMNSLKPEDTAVYYCAAASSYSKKPYYSYGYWGQGTQVTVSS

>  <polyreactivity (PSR sort gate)>
high polyreactivity

$$$$
>  <QUERY_SEQUENCE>
QVQLVESGGGLVQAGGSLRLSCAASGSIFYTNVMGWYRQAPGKERELVAAISSSGDRTYYADSVKGRFTISRDNAKNTVYLQMNSLKPEDTAVYYCAAQSYRSRYYYWGQGTQVTVSS

>  <polyreactivity (PSR sort gate)>
high polyreactivity

$$$$
>  <QUERY_SEQUENCE>
QVQLVESGGGLVQAGGSLRLSCADSGRIFTSYVMGWYRPAPGQERELVAAITRSGGSTYYADSVKGRFTNSRDNAKNTVYLQMNSLKPEDTAVYYCIALTRRQKGGEGGGYWGQGTQVTVSS

>  <polyreactivity (PSR sort gate)>
high polyreactivity

$$$$
>  <QUERY_SEQUENCE>
QVQLVESGGGLVQAGGSLRLSCAASGLTFLRYAMGWYRQAPGKERELVATISASDGDTYYADSVKGRFTISGDNAKNTVYLQMNSLKPEDTAVYYCAADDIYKYYQYYAFPYYRYDDWGQGTEVTVSS

>  <polyreactivity (PSR sort gate)>
low polyreactivity

$$$$
>  <QUERY_SEQUENCE>
QVQLVESGGGLVQAGGSLRLSCAASGSTFVWKAMGWYRQAPGKERELVAAISSSGGITYYADSVKGRFTISRDNAKNPVYLQMNSLKPEDTAVYYCAAERDDDWVNYWGQGTQVTVSS

>  <polyreactivity (PSR sort gate)>
low polyreactivity

$$$$
>  <QUERY_SEQUENCE>
QVQLVESGGGLVQAGGSLRLSCAASGRIFYGNAMGWYRQSPGKERELVASITSSGSTKYADSVKGRFTISRDNAKNTVYLQMNSLKPEDTAVYYCAASSTKRYDTYAGYDYWGQGTQVTVSS

>  <polyreactivity (PSR sort gate)>
low polyreactivity

$$$$
>  <QUERY_SEQUENCE>
QVQLVESGGGLVQAGGSLRLSCAASGGTFSYYAMGWYRQAPGKERELVAAITYSGDRTYYADSVKGRFTISRDNAKNTVFLQMNSLKPEDTAVYYCNAVRGSWYGYYYWGQGTQVTVSS

>  <polyreactivity (PSR sort gate)>
high polyreactivity

$$$$
>  <QUERY_SEQUENCE>
QVQLVESGGGLVQAGGSLRLSCAASGFTFDIYAMGWYRQAPGTERELVATISFTGDTTSYADSVKGRFTISRDNAKTTVYLQMNSLKPEDTAVYYCAADGSYPLSVGRENLHYAEFDYWGQGTQVTVSS

>  <polyreactivity (PSR sort gate)>
low polyreactivity

$$$$
>  <QUERY_SEQUENCE>
QVQLVESGGGLVQAGGSLRLSCAASGFIFPYYAMGWYRPAPGKERELVAAITSSGGSTYYADSVKGRFTISRDNAKNTVYLQMNSLKPEDTAVYYFNAYVRRTRVYDYWGQGTLVTVSS

>  <polyreactivity (PSR sort gate)>
high polyreactivity

$$$$
>  <QUERY_SEQUENCE>
QVQLVESGGGLVQAGGSLRLSCAASGSTFYYNTMGWYRQAPGKERELVAAISSSGGTTYYADSVKGRFTISRDNAKNTVYLQMNSLKPEDTAVYYCNVATIWYSYARGYGYWGQGTQVTVSS

>  <polyreactivity (PSR sort gate)>
high polyreactivity

$$$$
>  <QUERY_SEQUENCE>
QVQLVESGGGLVQAGGSLRLSCAASGSNFQYVYAMGWYRQAPGKERELVAAINGGSGSTYYADSVKGSFTISRDNAKNTVYLQMNSLKPEDTAVYYCNRDYEYPTYPHDYWGQGTQVTVSS

>  <polyreactivity (PSR sort gate)>
low polyreactivity

$$$$
>  <QUERY_SEQUENCE>
QVPLVESGGGLVQAGGSLRLSCAASGLIFTGYAMGWYRQAPGKEREVVAAITSAGSTNYADSVKGRFTISRDNAKNTVYLQMNSLKPEDTAVYYCGASRTTTFSWYYLYYLVSKYYYWGQGTQVTVSS

>  <polyreactivity (PSR sort gate)>
low polyreactivity

$$$$

* * *

# ASSAY_PROCEDURE: yeast display, Sf9 membrane polyspecificity reagent, FACS + sequencing; frameworks hold sequencing errors
PROPERTY: polyreactivity (PSR sort gate)

>  <QUERY_SEQUENCE>
QVQLVESGGGLVQAGGSLRLSCAASGSTFSFNAMGWYRQAPGKERELVAAISRSGGRTYYADSVKGRFTISRDNAKNTVYLQMNSLKPEDTAVYYCNKVWFQRSVQPVEYDYWGQGTQVTVSS

>  <RECORDED_RESULT>
high polyreactivity

$$$$
>  <QUERY_SEQUENCE>
QVQLVESGGGLVQAGGSLRLSCAASGSTFDVYAMGWYRQAPGKERELVAAITWDGDRTYYADSVKGRFTISRDNAKNTVYLQMNSLKPEDTAVYYCNVDTYVEYPHDYWGQGTQVTVSS

>  <RECORDED_RESULT>
low polyreactivity

$$$$
>  <QUERY_SEQUENCE>
QVHLVESGGGLVQAGGSLRLSSAASGSNFGLNAMGWSRQAPGKERELVAAITWSGGSSTYYADTVKGRLTISRDNAKNSVYLQMKSLKPEDTAVYYCAARRVFIPYYVRFYYWGQGTQVTVSS

>  <RECORDED_RESULT>
high polyreactivity

$$$$
>  <QUERY_SEQUENCE>
QVHLVESGGGLVQAGGSLRLSCAASGRTLGGYAMGWYRQAPGKERELVAVITWNGGSTYADSVKGRFTISRDNAKNTVYLQRNSLKPEDTAVYYCAVYIPRGGRSGYWGQGTQVTVSS

>  <RECORDED_RESULT>
high polyreactivity

$$$$
>  <QUERY_SEQUENCE>
QVQLEESGGGLVQAGGSLRLSCAASGGTFDYYAMGWYRQAPRKERELVAVINWSGGRTYYADSVKGRFTISRDNAKNTVYLQMNSLKPEDTAVYYCAAQRPPGQTWNRDYWGQGTQVTVSS

>  <RECORDED_RESULT>
high polyreactivity

$$$$
>  <QUERY_SEQUENCE>
QVQLVESGGGLVQAGGSLRLSCAASGSIFPSYAMGWYRQAPGKERELVATISGSGTRTYYADSVKGRFTISRDNAKNTVYLQMNILKPEDTAVYYCAADPWLGTGRYDYWGQGTQVTVSS

>  <RECORDED_RESULT>
low polyreactivity

$$$$
>  <QUERY_SEQUENCE>
QVQLVESGGGLVQAGGSLRLSCAASGRTFDYYTMGWYRQAPGKERELVAAISRSSGRTYYADSVKGRFTISRDNAKNTVYLQMNSLKPEDTAVYYCAARYYLSVRYGYWGQGTQVTVSS

>  <RECORDED_RESULT>
high polyreactivity

$$$$
>  <QUERY_SEQUENCE>
QVQLVESGGGLVQAGGSLRLTCAATGRIFSRYAMGWYRQAPGKERELVAAISRSGGSTYYADSVKGRFTISRDNAKNTVYFQMNSLKPEDTAVYYCAARNVFSYPPGSYYYWGQGTQVTVSS

>  <RECORDED_RESULT>
high polyreactivity

$$$$
>  <QUERY_SEQUENCE>
QVQLVESGGGLVQAGGSLRLSCAASGFIFSYYAMGWYRQAPGKERELVAAISSGGSTYYADSVKGRFTISRDNAKNSVYLQMNSLKPEDTAVYYCAAAIWYIILYFVRRTEHGYWGQGTQVTVSS

>  <RECORDED_RESULT>
low polyreactivity

$$$$
>  <QUERY_SEQUENCE>
QVQLVESGGGLLQAGGSLRVSCAASGRTFLRYAMGWSIKAPGKERELVAGIDSSGGNTYYADSVKGRFTISRDTAKKYVYLQINSLKPEDTAVYYCAPRRSCKYRGGYYWGQGTQVTVSS

>  <RECORDED_RESULT>
high polyreactivity

$$$$
>  <QUERY_SEQUENCE>
QVQLVESGGGLVQAGGSLRLSCAASGFTFLAYPMGRYRQAPGKERELVAAISKSGGSTYYADSVKGRFTISRDNAKITVYLQMNSLKPDDTAVYYSNAGRRIKFYGSYDYWGQGSQVTVSS

>  <RECORDED_RESULT>
high polyreactivity

$$$$
